Molecular target: purified human αVβ3 (R&D Systems) (Homo sapiens, UniProt P05106+P06756)
Sequence (P05106 27-788): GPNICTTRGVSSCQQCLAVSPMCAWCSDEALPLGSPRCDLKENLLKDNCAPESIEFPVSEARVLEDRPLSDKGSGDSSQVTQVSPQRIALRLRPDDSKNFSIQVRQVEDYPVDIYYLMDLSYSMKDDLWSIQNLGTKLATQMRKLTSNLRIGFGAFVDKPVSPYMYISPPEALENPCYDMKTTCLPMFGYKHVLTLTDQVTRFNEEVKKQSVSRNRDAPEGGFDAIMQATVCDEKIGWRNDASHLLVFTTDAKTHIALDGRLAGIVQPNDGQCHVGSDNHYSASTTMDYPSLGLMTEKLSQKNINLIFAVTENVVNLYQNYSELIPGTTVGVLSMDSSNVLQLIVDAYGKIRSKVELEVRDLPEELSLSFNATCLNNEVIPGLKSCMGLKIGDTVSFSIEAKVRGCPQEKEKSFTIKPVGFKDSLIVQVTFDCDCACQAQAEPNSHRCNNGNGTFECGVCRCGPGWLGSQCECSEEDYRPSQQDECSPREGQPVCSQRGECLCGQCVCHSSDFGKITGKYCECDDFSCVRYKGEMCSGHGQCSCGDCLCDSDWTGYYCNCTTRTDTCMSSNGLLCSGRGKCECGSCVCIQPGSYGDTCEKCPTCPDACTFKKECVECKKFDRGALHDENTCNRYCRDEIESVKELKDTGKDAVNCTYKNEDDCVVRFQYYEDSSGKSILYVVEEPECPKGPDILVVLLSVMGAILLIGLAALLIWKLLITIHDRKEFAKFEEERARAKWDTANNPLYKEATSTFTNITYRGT
Sequence (P06756 891-1048): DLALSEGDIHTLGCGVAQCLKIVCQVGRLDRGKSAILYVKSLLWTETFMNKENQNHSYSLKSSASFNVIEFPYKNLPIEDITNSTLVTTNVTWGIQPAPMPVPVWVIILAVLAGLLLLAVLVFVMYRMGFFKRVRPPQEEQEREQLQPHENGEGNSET
Sequence (P06756 31-889): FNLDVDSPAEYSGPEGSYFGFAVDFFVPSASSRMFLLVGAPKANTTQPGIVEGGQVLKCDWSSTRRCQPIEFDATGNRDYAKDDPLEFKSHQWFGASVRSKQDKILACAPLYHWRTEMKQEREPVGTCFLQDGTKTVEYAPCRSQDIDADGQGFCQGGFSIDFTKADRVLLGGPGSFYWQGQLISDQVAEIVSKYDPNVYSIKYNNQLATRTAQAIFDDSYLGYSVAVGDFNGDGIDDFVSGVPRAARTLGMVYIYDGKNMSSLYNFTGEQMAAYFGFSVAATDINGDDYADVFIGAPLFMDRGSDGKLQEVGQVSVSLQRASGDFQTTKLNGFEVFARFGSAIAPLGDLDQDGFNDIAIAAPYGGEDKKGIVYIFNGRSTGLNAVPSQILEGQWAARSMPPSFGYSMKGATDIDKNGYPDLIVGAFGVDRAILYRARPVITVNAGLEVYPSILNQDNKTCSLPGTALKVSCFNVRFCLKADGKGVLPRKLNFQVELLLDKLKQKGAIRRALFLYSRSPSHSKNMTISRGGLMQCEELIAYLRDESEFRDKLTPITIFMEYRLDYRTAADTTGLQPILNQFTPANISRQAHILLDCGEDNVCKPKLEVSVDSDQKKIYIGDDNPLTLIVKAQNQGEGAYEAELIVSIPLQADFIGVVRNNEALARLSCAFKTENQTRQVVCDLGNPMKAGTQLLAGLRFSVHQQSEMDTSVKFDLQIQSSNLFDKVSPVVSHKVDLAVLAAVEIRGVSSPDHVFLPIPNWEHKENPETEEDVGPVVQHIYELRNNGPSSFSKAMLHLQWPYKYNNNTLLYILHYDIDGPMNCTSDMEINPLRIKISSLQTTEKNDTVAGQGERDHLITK
Assay: biochemical
experimental.readout: pIC50
The scale used: pIC50 is minus the common logarithm of the concentration in molar units.

- molecule: "O=C(CCCCc1ccc2c(n1)NCCC2)NCC[C@H](NC(=O)c1nc2ccccc2s1)C(=O)O [G, TDI-4161]"
  pIC50: 7.92

Now let's try a different one.
O=C(CCCCc1ccc2c(n1)NCCC2)NCCC(Nc1nc2ccccc2o1)C(=O)O (racemic) [E, TDI-3761] has a reported pIC50 of 7.31

====

Target: purified human αVβ3 (R&D Systems) (Homo sapiens, UniProt P05106+P06756)
Test: biochemical
Conditions: read-out: IC50 (μM) purified αVβ3 binding to penton base; antagonist
experimental.readout: IC50 (µM)
The reply should contain only the number, in µM.

COc1ccc(C(CC(=O)O)N2CCN(CCCc3ccc4c(n3)NCCC4)C2=O)cn1 (racemic) [MK-429 racemate] has a reported IC50 of 0.011
